Let's look at some Ki data for UniProt Q9Y5Z0 that I collected from the literature.
A number alone suffices; assume nM.

Input line: Give me measured Ki, please, for this compound: `C[C@@]1(c2sc(Br)cc2Cl)CS(=O)(=O)C2(CCOCC2)C(=N)N1`
Output line: 1090

Input line: Give me measured Ki, please, for this compound: `COC[C@H]1C[C@H]2C(=O)N(C)C(=N)N[C@@]2(c2cc(Oc3cc(C#N)ccn3)c(F)cc2F)CO1`
Output line: 11

Input line: Give me measured Ki, please, for this compound: `CC1(C)C(=N)N[C@@]2(COCc3ccc(NC(=O)c4cnc(OCC(F)(F)F)cn4)cc32)CS1(=O)=O`
Output line: 402

Input line: Give me measured Ki, please, for this compound: `CN1C(=N)N[C@](C)(c2sc(-c3nnc(-c4ccc(-n5cnnn5)cc4)o3)cc2Cl)CS1(=O)=O`
Output line: 1350

Input line: Give me measured Ki, please, for this compound: `CN1C(=N)N[C@](C)(c2sc(-c3nnc(-c4ccc5c(c4)C(=O)CC5)o3)cc2Cl)CS1(=O)=O`
Output line: 1990

Input line: Give me measured Ki, please, for this compound: `CC1(C)C(=N)N[C@@]2(COCc3ccc(NC(=O)c4ccc(OC(F)F)cn4)cc32)CS1(=O)=O`
Output line: 76

###

Let's look at some pKi data for Beta-secretase 2 (Homo sapiens, UniProt Q9Y5Z0) that I collected from the literature.
In textbook form, pKi equals minus log to base ten of the concentration in mol/L.

Input line: Give me measured pKi, please, for this molecule: `COc1cnc2c(Nc3cc([C@]4(C)CS(=O)(=O)[C@@](C)(C5CC5)C(N)=N4)c(F)cn3)nccc2c1`
Output line: 9.24

Input line: Give me measured pKi, please, for this molecule: `C[C@H]1C[C@@H]2[C@](c3cc(Oc4cc(C#N)ccn4)ccc3F)(CO1)NC(=N)N(C)S2(=O)=O`
Output line: 8.64

Input line: Give me measured pKi, please, for this molecule: `CN1C(=N)N[C@](C)(c2sc(-c3nnc(-c4ccc(C(F)(F)F)c(F)c4)o3)cc2Cl)CS1(=O)=O`
Output line: 6.44

Input line: Give me measured pKi, please, for this molecule: `COc1cnc(C(=O)Nc2ccc(F)c([C@]3(C)CS(=O)(=O)C4(CCCC4)C(=N)N3)c2)cn1`
Output line: 8.82

Input line: Give me measured pKi, please, for this molecule: `COc1cccc2cc(-c3cc(Cl)c([C@]4(C)CS(=O)(=O)C5(CCOCC5)C(=N)N4)s3)[nH]c12`
Output line: 8.70

###

Let's look at some Ki data for Beta-secretase 2 (Homo sapiens) that I collected from the literature.
A number alone suffices; assume µM.

Input line: Give me measured Ki, please, for this compound: `CC(C)c1ccc(-c2nnc(-c3cc(Cl)c([C@]4(C)CS(=O)(=O)N(C)C(=N)N4)s3)o2)cc1`
Output line: 0.889

Input line: Give me measured Ki, please, for this compound: COc1nc(N2C[C@@H]3[C@](c4cc(F)c(F)cc4F)(C2)NC(=N)N(C)S3(=O)=O)nc(C)c1F (stereo in doubt)
Output line: 0.019

Input line: Give me measured Ki, please, for this compound: `C[C@@]1(c2cc(N)ccc2F)CS(=O)(=O)[C@@]2(CCOC2)C(=N)N1`
Output line: 3.82

Input line: Give me measured Ki, please, for this compound: `C[C@]1(c2cc(-c3cccc(C#N)c3)cs2)NC(=N)c2cncnc2C1(F)F`
Output line: 0.0398

Input line: Give me measured Ki, please, for this compound: `Cc1cc(F)cnc1C(=O)Nc1ccc2c(c1)[C@@]1(C)NC(=N)N(C)S(=O)(=O)[C@H]1CCC2`
Output line: 0.01

Input line: Give me measured Ki, please, for this compound: `CC1(C)C(=N)N[C@@]2(CCCc3ccc(NC(=O)c4cnc(OCCF)cn4)cc32)CS1(=O)=O`
Output line: 0.156

Input line: Give me measured Ki, please, for this compound: `COc1cccc2cc(-c3csc([C@]4(C)Cc5nc(C(F)(F)F)ncc5C(=N)N4)c3)[nH]c12`
Output line: 0.0015

###

Let's look at some Ki data for Beta-secretase 2 (Homo sapiens, UniProt Q9Y5Z0) that I collected from the literature.
A number alone suffices; assume nM.

Input line: Give me measured Ki, please, for this molecule: `COc1cnc(C(=O)Nc2ccc(F)c([C@]3(C)CS(=O)(=O)C4(CN(C)C4)C(=N)N3)c2)c(C)n1`
Output line: 4.9

Input line: Give me measured Ki, please, for this molecule: `COc1nc(N2C[C@@H]3[C@](c4ccccc4)(C2)NC(=N)N(C)S3(=O)=O)nc(C)c1F`
Output line: 16

Input line: Give me measured Ki, please, for this molecule: `COc1cccc2cc(-c3cc(Cl)c([C@]4(C)CS(=O)(=O)C5(CC5)C(=N)N4)s3)[nH]c12`
Output line: 1

Input line: Give me measured Ki, please, for this molecule: `CN1C(=N)N[C@](C)(c2cc(-c3ccc(F)c(C#N)c3)cs2)CS1(=O)=O`
Output line: 8.23

Input line: Give me measured Ki, please, for this molecule: `C[C@H]1C[C@H]2C(=O)N(C)C(=N)N[C@@]2(c2cc(Oc3cnccn3)ccc2F)CO1`
Output line: 30.3

Input line: Give me measured Ki, please, for this molecule: `CN1C(=N)N[C@](C)(c2sc(-c3nnc(-c4cccc(C#N)c4)o3)cc2Cl)CS1(=O)=O`
Output line: 1240

Input line: Give me measured Ki, please, for this molecule: `COC[C@H]1C[C@H]2C(=O)N(C)C(=N)N[C@@]2(c2cc(Oc3ncccc3F)ccc2F)CO1`
Output line: 8

Input line: Give me measured Ki, please, for this molecule: `C[C@@]1(c2cc(NC(=O)c3ccc(F)cn3)ccc2F)CS(=O)(=O)C2(CC2)C(=N)N1`
Output line: 0.9

Input line: Give me measured Ki, please, for this molecule: `COc1cnc2c(Nc3ccc(F)c([C@]4(C)CS(=O)(=O)N(C)C(=N)N4)c3)nccc2c1`
Output line: 5.8

Input line: Give me measured Ki, please, for this molecule: `COc1cnc2c(Nc3ccc(F)c([C@]4(C)CS(=O)(=O)[C@@](C)(C5CC5)C(N)=N4)c3)ncnc2n1`
Output line: 11

Input line: Give me measured Ki, please, for this molecule: `CN1C(=N)N[C@](C)(c2cc(N[C@@H]3CCc4ncc(Cl)cc43)ccc2F)CS1(=O)=O`
Output line: 124

Input line: Give me measured Ki, please, for this molecule: `CN1C(=N)N[C@](C)(c2sc3c(-c4cnc(-c5ccc(F)cc5)o4)cccc3c2F)CS1(=O)=O`
Output line: 3320

Input line: Give me measured Ki, please, for this molecule: `CC1(C)C(=N)N[C@@]2(CCCc3ccc(NC(=O)c4ncc(Cl)cc4F)cc32)CS1(=O)=O`
Output line: 2

Input line: Give me measured Ki, please, for this molecule: `Cc1cccnc1Oc1ccc(F)c([C@]23CO[C@@H](C)C[C@H]2C(=O)N(C)C(=N)N3)c1`
Output line: 32.3

Input line: Give me measured Ki, please, for this molecule: `CN1C(=N)N[C@@]2(c3cc(OCC4CC(F)(F)C4)ccc3F)CO[C@@H](C3CC3)C[C@H]2C1=O`
Output line: 42

Input line: Give me measured Ki, please, for this molecule: CC1CN=C(c2ccc(-c3cc(Cl)c([C@]4(C)CS(=O)(=O)N(C)C(=N)N4)s3)[nH]2)O1 (stereo partly drawn)
Output line: 35

Input line: Give me measured Ki, please, for this molecule: `COc1ccc(C(=O)Nc2ccc3c(c2)[C@]2(CCC3)CS(=O)(=O)C(C)(C)C(=N)N2)nc1`
Output line: 7

###

Let's look at some Ki data for Beta-secretase 2 (Homo sapiens) that I collected from the literature.
A number alone suffices; assume nM.

Input line: Give me measured Ki, please, for this molecule: `CC1(C)C(=N)N[C@@]2(COCc3ccc(NC(=O)c4ccc(C(F)(F)F)cn4)cc32)CS1(=O)=O`
Output line: 155

Input line: Give me measured Ki, please, for this molecule: `CC1(C)C(=N)N[C@@]2(COCc3ccc(NC(=O)c4ncc(Cl)cc4F)cc32)CS1(=O)=O`
Output line: 5

Input line: Give me measured Ki, please, for this molecule: `CN1C(=N)N[C@](C)(c2cc(-c3nnc(-c4cncs4)o3)ccc2F)CS1(=O)=O`
Output line: 4220

Input line: Give me measured Ki, please, for this molecule: `C[C@@]1(c2cc(N)ccc2F)CS(=O)(=O)C2(CCC2)C(=N)N1`
Output line: 3970

Input line: Give me measured Ki, please, for this molecule: `Cc1ncc2c(n1)C[C@](c1cc(NC(=O)c3ccc(C#N)cn3)ccc1F)(C(F)F)NC2=N`
Output line: 10.9

###

Let's look at some Ki data for Beta-secretase 2 (Homo sapiens, UniProt Q9Y5Z0) that I collected from the literature.
A number alone suffices; assume nM.

Input line: Answer briefly: Ki recorded on Beta-secretase 2 (Homo sapiens, UniProt Q9Y5Z0) for CC1(S(C)(=O)=O)CCC(CF)(c2cc(NC(=O)c3cc4c(cn3)OC(F)(F)CO4)cc(F)c2F)N=C1N (centres unmarked)
Output line: 29

Input line: Answer briefly: Ki recorded on Beta-secretase 2 (Homo sapiens, UniProt Q9Y5Z0) for `C[C@H]1C[C@@H]2[C@](c3cc(Br)ccc3F)(CO1)NC(=N)C(C)(C)S2(=O)=O`
Output line: 399

Input line: Answer briefly: Ki recorded on Beta-secretase 2 (Homo sapiens, UniProt Q9Y5Z0) for `CN1C(=N)N[C@@]2(c3ccc(F)cc3F)CO[C@@H](C3CC3)C[C@H]2C1=O`
Output line: 265

Input line: Answer briefly: Ki recorded on Beta-secretase 2 (Homo sapiens, UniProt Q9Y5Z0) for `Cc1cncc(Oc2ccc(F)c([C@]34CO[C@@H](C)C[C@H]3C(=O)N(C)C(=N)N4)c2)n1`
Output line: 25.2
